The entries below are paired with their reported solubility at 24 h.
Assay text: pH solubility
Type: physicochemical
Details: aqueous solution, pH 7.4, aqueous buffer, thermodynamic from solid; read-out: Solubility Concentration
Unit µg/mL implied. Number only.

Use these answered entries as a reference point.
>>> reading("COc1cc2c(NC3COC3)nc(N3CCC(F)(F)CC3)nc2cc1OCCCN1CCCC1")
245
>>> reading("COc1cc2c(NC3CCOCC3)nc(N3CCC(F)(F)CC3)nc2cc1OCCCN1CCCC1")
449
>>> reading("COc1cc2c(NC3CCS(=O)(=O)CC3)nc(N3CCC(F)(F)CC3)nc2cc1OCCCN1CCCC1")
424

// below: solubility at 24 h requested for another compound
Input line: Endpoint output: solubility at 24 h of COc1cc2c(NC3CCN(C(C)C)CC3)nc(N3CCC(F)(F)CC3)nc2cc1OCCCN1CCCC1 [Compound 400, reference compound] . Value?
Output line: 11
